# assay details: in vitro
# test context: rat, not told, Surrogate activity-based Plasma stability t½
Where a SMILES comes first, the peptide text is derived from it. Bridges are numbered along the chain shown (N, C = ends). [ ]: non-standard residue; d: D form. pGlu = O=C1CC[C@@H](C(=O)O)N1; Nle = CCCC[C@H](N)C(=O)O; Aib = CC(C)(N)C(=O)O; Inp = O=C(O)C1CCNCC1
property: half-life

INSERT INTO assay_data (molecule, result_value) VALUES
  ('CCCC[C@@H]1NC(=O)[C@@H]2CCCN2C(=O)CNC(=O)[C@H](CCCCN)NC(=O)C(C)(C)NC(=O)[C@@H](NC(=O)[C@H](CC(C)C)NC(=O)[C@H](CCCNC(=N)N)NC(=O)[C@@H]2CCCN2C(=O)[C@H](CCCNC(=N)N)NC(=O)C2CCNCC2)CSSC[C@@H](C(=O)N[C@H](Cc2ccccc2)C(=O)O)NC1=O [Example 11, H-Isn-R-P-R-L-C-Aib-K-G-P-Nle-C-f-OH] (H-[Inp]RPRLC[Aib]KGP[Nle]C[dF]-OH; disulfide 6-12)', '> 16.7 h'),
  ('CCCC[C@@H]1NC(=O)[C@@H]2CCCN2C(=O)CNC(=O)[C@H](CCC(=O)O)NC(=O)[C@H](Cc2c[nH]cn2)NC(=O)[C@@H](NC(=O)[C@H](CC(C)C)NC(=O)[C@H](CCCNC(=N)N)NC(=O)[C@@H]2CCCN2C(=O)[C@H](CCCNC(=N)N)NC(=O)[C@@H]2CCC(=O)N2)CSSC[C@@H](C(=O)N[C@@H](Cc2ccccc2)C(=O)O)NC1=O [Example 38, pE-R-P-R-L-C-H-E-G-P-Nle-C-F-OH] ([pGlu]RPRLCHEGP[Nle]CF-OH; disulfide 6-12)', '> 16.7 h'),
  ('CCCC[C@@H]1NC(=O)[C@@H]2CCCN2C(=O)CNC(=O)[C@H](CCCCN)NC(=O)[C@H](CCC(=O)O)NC(=O)[C@@H](NC(=O)[C@H](CC(C)C)NC(=O)[C@H](CCCNC(=N)N)NC(=O)[C@@H]2CCCN2C(=O)[C@H](CCCNC(=N)N)NC(=O)[C@@H]2CCC(=O)N2)CSSC[C@@H](C(=O)N[C@@H](Cc2ccccc2)C(=O)O)NC1=O [Example 43, pE-R-P-R-L-C-E-K-G-P-Nle-C-F-OH] ([pGlu]RPRLCEKGP[Nle]CF-OH; disulfide 6-12)', '> 16.7 h');
